Listed here: items and their measured IC50.
Tested on: Colletotrichum gloeosporioides
ASSAY_SUMMARY: Antifungal activity against Colletotrichum gloeosporioides assessed as inhibition of fungal growth measured after 72 hr by 96-well microdilution assay
Assay type: functional, organism-based

Field: example entries. Status: answers known.
CCCCC/C=C/C=C/C(=O)CCCCCCCC(=O)O ... > 333 µM
CCCCCC(=O)/C=C\C=C\CCCCCCCC(=O)O ... > 333 µM
CCCCC/C=C\C=C\[C@@H](O)CCCCCCCC(=O)O ... > 333 µM

Turning now to a further molecule:
# get_value(readout='IC50', item= O=C1C2CC=CCC2C(=O)N1SC(Cl)(Cl)Cl (centres undefined) [CAPTAN] )
4.7 µM

###

Tested on: Botrytis cinerea
ASSAY_SUMMARY: Antifungal activity against Botryotinia fuckeliana assessed as inhibition of fungal growth measured after 72 hr by 96-well microdilution assay
Type: functional, organism-based
Listed here: items and their measured IC50.

Field: example entries. Status: answers known.
CCCCC/C=C/C=C/C(=O)CCCCCCCC(=O)O ... > 333 µM
O=C1C2CC=CCC2C(=O)N1SC(Cl)(Cl)Cl (centres undefined) [CAPTAN] ... 2.8 µM
CCCCCC(=O)/C=C\C=C\CCCCCCCC(=O)O ... > 333 µM

# get_value(readout='IC50', item= CCCCC/C=C\C=C\[C@@H](O)CCCCCCCC(=O)O )
> 333 µM

###

System: Colletotrichum acutatum
ASSAY_SUMMARY: Antifungal activity against Colletotrichum acutatum assessed as inhibition of fungal growth measured after 72 hr by 96-well microdilution assay
Format: functional, organism-based
pIC50: −log10 of the molar value.
MEASUREMENT_NAME: pIC50

# get_value(readout='pIC50', item= CCCCC/C=C/C=C/C(=O)CCCCCCCC(=O)O )
< 3.48

# get_value(readout='pIC50', item= O=C1C2CC=CCC2C(=O)N1SC(Cl)(Cl)Cl (centres undefined) [CAPTAN] )
5.28

# get_value(readout='pIC50', item= CCCCC/C=C\C=C\[C@@H](O)CCCCCCCC(=O)O )
< 3.48

# get_value(readout='pIC50', item= CCCCCC(=O)/C=C\C=C\CCCCCCCC(=O)O )
< 3.48

###

Listed here: items and their measured IC50.
Test system: Phomopsis viticola
ASSAY_SUMMARY: Antifungal activity against Phomopsis viticola assessed as inhibition of fungal growth measured after 120 hr by 96-well microdilution assay
Reply numerically in µM, unit not repeated.

CCCCC/C=C/C=C/C(=O)CCCCCCCC(=O)O ... 110

Turning now to a further compound:
# get_value(readout='IC50', item= CCCCCC(=O)/C=C\C=C\CCCCCCCC(=O)O )
115

###

System: Colletotrichum fragariae
ASSAY_SUMMARY: Antifungal activity against Colletotrichum fragariae assessed as inhibition of fungal growth measured after 72 hr by 96-well microdilution assay
Assay type: functional, organism-based
Listed here: items and their measured IC50.
Reply numerically in µM, unit not repeated.

Recall the recorded IC50 for O=C1C2CC=CCC2C(=O)N1SC(Cl)(Cl)Cl (centres undefined) with Colletotrichum fragariae and state it.
3

Recall the recorded IC50 for CCCCCC(=O)/C=C\C=C\CCCCCCCC(=O)O with Colletotrichum fragariae and state it.
270

Attribution: ChEMBL document CHEMBL3045123
